- Test system: MDA-N
- test.method.notes: NCI tumour cell line growth inhibition, 48 h
Calls of active or inactive are those of the source. No stated cut-off is given here; in the data, active = GI50 up to about 1.1 µM and inactive = higher. Bridge positions count the residues as written; N and C are the ends. Square brackets hold non-standard residues; d marks the D form. Peptide text beside a SMILES is read from it. * marks the point of attachment. Cya = N[CH](CS(=O)(=O)O)C(=O)O; X49 = CC(C)CCCCCCCC(O)CC(=O)*; GABA = NCCCC(=O)O
Your answer must be one of the following: t (active), f (inactive)

Solved entries (count: 7):
INSERT INTO results (molecule, group) VALUES
  ('COc1ccc(C(O)(c2ccccc2)c2nccc3ccccc23)cc1 (stereo not drawn)', 'f'),
  ('CC(C)CCCCCCCC(O)CC(=O)NC(CS(=O)(=O)O)C(=O)NC(CC(C)C)C(=O)NCCCC(=O)NC(Cc1c[nH]cn1)C(=O)NC(C)C(=O)NC1C(=O)NC(C(C)O)C(=O)NC(Cc2c[nH]cn2)C(=O)NC(C)C(=O)NC(C(C)O)C(=O)OC1C (stereo not drawn) (X49-[Cya]L[GABA]HATTHAT; ester 6-C; configuration not given here)', 'f'),
  ('CC(C)CCNC(=O)c1ccc(CNC(=O)/C=C/c2ccc3ccccc3c2)cc1', 'f'),
  ('CSc1ccc(NC(=O)C2CCCCC2C(=O)O)cc1 (stereo not drawn)', 'f'),
  ('CC(=O)c1sc2c(c1OC(=O)c1ccccc1)c(=O)n(-c1ccccc1)c(=S)n2-c1ccccc1', 'f'),
  ('CC1(C)OCC([C@H]2O[C@@H](CC(=S)NCCCCCCCCCCCCNC(=S)C[C@H]3O[C@@H](C4COC(C)(C)O4)[C@H]4OC(C)(C)O[C@H]43)[C@H]3OC(C)(C)O[C@H]32)O1 (stereo partly drawn)', 'f'),
  ('CCCCCCOc1ccc(C(=O)NOCc2ccccc2)cc1', 'f');

Now for another entry.
stdin: For this molecule, state the assay outcome: CSc1nc(Cl)c2c(n1)Sc1nc3cc4c(cc3n1C2O)OCCO4 (stereo not drawn)
stdout: t
